# measuredTarget: T1, human pIgR extracellular domain (ECD) (human, UniProt P01833 19-638)
# T1 construct: also called hpIgR ECD
# T1 sequence (P01833 other isoform, or with tags, fused parts or gaps): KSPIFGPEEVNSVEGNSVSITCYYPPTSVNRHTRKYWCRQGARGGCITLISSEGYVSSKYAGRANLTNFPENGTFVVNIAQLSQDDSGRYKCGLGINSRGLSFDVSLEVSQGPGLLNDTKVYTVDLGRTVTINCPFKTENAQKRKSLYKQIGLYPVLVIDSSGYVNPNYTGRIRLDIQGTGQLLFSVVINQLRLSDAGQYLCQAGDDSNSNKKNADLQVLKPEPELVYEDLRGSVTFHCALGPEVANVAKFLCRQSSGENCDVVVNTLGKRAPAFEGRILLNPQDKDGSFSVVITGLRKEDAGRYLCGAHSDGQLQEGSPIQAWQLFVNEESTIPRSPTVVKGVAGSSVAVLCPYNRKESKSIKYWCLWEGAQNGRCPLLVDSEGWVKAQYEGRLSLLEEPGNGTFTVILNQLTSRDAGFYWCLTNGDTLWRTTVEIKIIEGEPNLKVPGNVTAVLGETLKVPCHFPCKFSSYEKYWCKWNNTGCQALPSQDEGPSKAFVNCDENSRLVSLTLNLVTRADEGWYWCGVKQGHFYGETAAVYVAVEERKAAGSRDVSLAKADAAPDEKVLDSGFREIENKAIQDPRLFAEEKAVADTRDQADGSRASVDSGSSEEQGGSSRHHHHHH
# assayProcedure: ECL (MSD), hpIgR-ECD coated, anti-Fc detection
Mark each entry MET if its EC50 sits below 0.5 nM, and NOT MET for all others.

Completed entries (count: 4):
VHH5-linker-mono-Fc protein (Fc fusion, made in CHO cells; also called VHH5-mono-Fc; hpIgR_175) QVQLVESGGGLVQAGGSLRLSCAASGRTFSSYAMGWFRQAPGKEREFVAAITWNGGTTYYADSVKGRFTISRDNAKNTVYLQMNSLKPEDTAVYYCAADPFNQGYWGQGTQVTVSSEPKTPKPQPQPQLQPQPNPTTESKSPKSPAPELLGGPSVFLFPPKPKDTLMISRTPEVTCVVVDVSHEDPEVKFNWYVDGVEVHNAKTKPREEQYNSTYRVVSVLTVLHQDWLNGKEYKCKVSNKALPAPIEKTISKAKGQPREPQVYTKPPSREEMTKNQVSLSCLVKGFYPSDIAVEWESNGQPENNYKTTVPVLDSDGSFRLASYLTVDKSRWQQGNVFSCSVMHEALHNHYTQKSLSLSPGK
MET
VHH11-linker-mono-Fc protein (Fc fusion, made in CHO cells; also called VHH11-mono-Fc; hpIgR_250) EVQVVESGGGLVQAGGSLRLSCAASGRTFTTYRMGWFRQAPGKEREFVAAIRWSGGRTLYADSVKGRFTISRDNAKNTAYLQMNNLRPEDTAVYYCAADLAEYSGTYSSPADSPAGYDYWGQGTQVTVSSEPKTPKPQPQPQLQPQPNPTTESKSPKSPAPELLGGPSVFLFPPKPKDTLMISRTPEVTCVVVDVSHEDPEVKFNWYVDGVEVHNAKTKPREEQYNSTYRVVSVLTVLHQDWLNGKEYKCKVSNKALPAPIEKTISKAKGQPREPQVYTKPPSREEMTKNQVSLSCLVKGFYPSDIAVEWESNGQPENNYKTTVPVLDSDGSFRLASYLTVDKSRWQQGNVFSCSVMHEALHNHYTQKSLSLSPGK
MET
VHH10-linker-mono-Fc protein (Fc fusion, made in CHO cells; also called VHH10-mono-Fc; hpIgR_225) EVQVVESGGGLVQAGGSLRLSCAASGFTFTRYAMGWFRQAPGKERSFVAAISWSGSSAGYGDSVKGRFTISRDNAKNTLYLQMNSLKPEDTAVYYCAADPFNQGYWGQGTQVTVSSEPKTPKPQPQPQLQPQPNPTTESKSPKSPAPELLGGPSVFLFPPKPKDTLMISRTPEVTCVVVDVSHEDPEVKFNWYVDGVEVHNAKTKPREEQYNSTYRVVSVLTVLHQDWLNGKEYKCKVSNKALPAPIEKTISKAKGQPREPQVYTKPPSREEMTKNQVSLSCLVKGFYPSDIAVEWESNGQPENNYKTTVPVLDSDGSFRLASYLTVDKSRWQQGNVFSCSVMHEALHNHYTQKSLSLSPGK
NOT MET
VHH9-linker-mono-Fc protein (Fc fusion, made in CHO cells; also called VHH9-mono-Fc; hpIgR_221) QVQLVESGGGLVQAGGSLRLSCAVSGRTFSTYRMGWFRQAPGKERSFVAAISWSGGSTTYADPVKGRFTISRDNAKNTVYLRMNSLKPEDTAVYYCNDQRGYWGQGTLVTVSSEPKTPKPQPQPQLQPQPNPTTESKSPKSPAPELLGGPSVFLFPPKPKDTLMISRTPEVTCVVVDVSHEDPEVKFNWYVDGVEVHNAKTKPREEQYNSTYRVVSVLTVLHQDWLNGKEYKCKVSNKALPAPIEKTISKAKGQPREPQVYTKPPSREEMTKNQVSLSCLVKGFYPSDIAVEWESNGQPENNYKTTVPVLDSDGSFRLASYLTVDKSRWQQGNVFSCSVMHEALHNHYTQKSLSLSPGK
MET

Req: I'd appreciate it if you could check whether VHH2-linker-mono-Fc protein (Fc fusion, also called VHH2-mono-Fc; mpIgR_338) EVQVVESGGGLVQAGGSLKLACAAPGLTFSSYRMGWFRQAPGQEREFVAAIDWNGRGTYYRYYADSVKGRSTISRDNAKNTVYLQMNSLKPEDTAVYYCAATTVLTDPRVLNEYATWGQGTQVTVSSEPKTPKPQPQPQLQPQPNPTTESKSPKSPAPELLGGPSVFLFPPKPKDTLMISRTPEVTCVVVDVSHEDPEVKFNWYVDGVEVHNAKTKPREEQYNSTYRVVSVLTVLHQDWLNGKEYKCKVSNKALPAPIEKTISKAKGQPREPQVYTKPPSREEMTKNQVSLSCLVKGFYPSDIAVEWESNGQPENNYKTTVPVLDSDGSFRLASYLTVDKSRWQQGNVFSCSVMHEALHNHYTQKSLSLSPGK has EC50 smaller than 0.5 nM.
Resp: NOT MET
